Reported standardised AUC values are given for each entry in this list.
Tested on: SK-ES-1
experiment.summary: standardised AUC of viability dose-response curve (72 h) (fraction (0-1)); higher = less growth inhibition (more resistant)
recorded.endpoint: standardised AUC

{"structure.as.smiles": "Cc1cnc(Nc2ccc(OCCN3CCCC3)cc2)nc1Nc1cccc(S(=O)(=O)NC(C)(C)C)c1", "test.result": 0.691}
{"structure.as.smiles": "CC(=O)Nc1cccc(-n2c(=O)n(C3CC3)c(=O)c3c(Nc4ccc(I)cc4F)n(C)c(=O)c(C)c32)c1", "test.result": 0.958}
{"structure.as.smiles": "C[C@@H](c1ccc2nccn2c1)n1nnc2ncc(-c3cnn(C)c3)nc21", "test.result": 0.996}
{"structure.as.smiles": "CC(C)(C)c1cc(NC(=O)Nc2ccc(-c3cn4c(n3)sc3cc(OCCN5CCOCC5)ccc34)cc2)no1", "test.result": 0.924}

###

Test system: MES-SA
experiment.summary: relative viability vs DMSO control (72 h) (fraction); higher = more viable cells
condition.notes: 0.00152 µM

{"structure.as.smiles": "CCc1cc2c(cc1N1CCC(N3CCOCC3)CC1)C(C)(C)c1[nH]c3cc(C#N)ccc3c1C2=O", "relative viability": 0.895}
{"structure.as.smiles": "COc1cc2c(Oc3ccc4[nH]c(C)cc4c3F)ncnc2cc1OCCCN1CCCC1", "relative viability": 0.949}
{"structure.as.smiles": "Cn1cnc2c(F)c(Nc3ccc(Br)cc3F)c(C(=O)NOCCO)cc21", "relative viability": 0.927}
{"structure.as.smiles": "C=CC(=O)Nc1cccc(Oc2nc(Nc3ccc(N4CCN(C)CC4)cc3)nc3ccsc23)c1", "relative viability": 0.916}
{"structure.as.smiles": "CNC(=O)c1cc(Oc2ccc(NC(=O)Nc3ccc(Cl)c(C(F)(F)F)c3)c(F)c2)ccn1", "relative viability": 0.972}
{"structure.as.smiles": "C=CC(=O)N1CCC[C@@H](n2nc(-c3ccc(Oc4ccccc4)cc3)c3c(N)ncnc32)C1", "relative viability": 0.955}

###

Test system: SK-ES-1
experiment.summary: standardised AUC of viability dose-response curve (72 h) (fraction (0-1)); higher = less growth inhibition (more resistant)
recorded.endpoint: standardised AUC

{"structure.as.smiles": "CNC(=O)c1ccc(-c2cnc3ncc(Cc4ccc5ncccc5c4)n3n2)cc1F", "recorded.endpoint": "standardised AUC", "test.result": 1}
{"structure.as.smiles": "C[C@@H]1CCN(C(=O)CC#N)C[C@@H]1N(C)c1ncnc2[nH]ccc12", "recorded.endpoint": "standardised AUC", "test.result": 0.989}
{"structure.as.smiles": "CCCS(=O)(=O)Nc1ccc(F)c(C(=O)c2c[nH]c3ncc(-c4ccc(Cl)cc4)cc23)c1F", "recorded.endpoint": "standardised AUC", "test.result": 0.959}
{"structure.as.smiles": "CC1(C)CNc2cc(NC(=O)c3cccnc3NCc3ccncc3)ccc21", "recorded.endpoint": "standardised AUC", "test.result": 0.991}
{"structure.as.smiles": "COCc1c(-c2cc3cc(C)cc(OC)c3s2)c2c(N)ncnn2c1CN1CCNC(=O)C1", "recorded.endpoint": "standardised AUC", "test.result": 0.907}
{"structure.as.smiles": "CCc1cc2c(cc1N1CCC(N3CCOCC3)CC1)C(C)(C)c1[nH]c3cc(C#N)ccc3c1C2=O", "recorded.endpoint": "standardised AUC", "test.result": 0.993}
{"structure.as.smiles": "Cc1cc(Nc2ncnc3ccc(NC4=NC(C)(C)CO4)cc23)ccc1Oc1ccn2ncnc2c1", "recorded.endpoint": "standardised AUC", "test.result": 0.974}
{"structure.as.smiles": "C=CC(=O)N1CCC[C@@H](n2nc(-c3ccc(Oc4ccccc4)cc3)c3c(N)ncnc32)C1", "recorded.endpoint": "standardised AUC", "test.result": 0.991}

###

Tested on: SW872
experiment.summary: relative viability vs DMSO control (72 h) (fraction); higher = more viable cells
condition.notes: 0.1235 µM
Reported relative viability values are given for each entry in this list.
recorded.endpoint: relative viability

{"structure.as.smiles": "C=CC(=O)N1CCC([C@@H]2CCNc3c(C(N)=O)c(-c4ccc(Oc5ccccc5)cc4)nn32)CC1", "test.result": 0.883}
{"structure.as.smiles": "Cc1nc(NC(=O)N2CCC[C@H]2C(N)=O)sc1-c1ccnc(C(C)(C)C(F)(F)F)c1", "test.result": 0.835}
{"structure.as.smiles": "C[C@@H]1COCCN1c1cc(-c2ccnn2C)c2ccnc(-c3ccn[nH]3)c2n1", "test.result": 0.714}
{"structure.as.smiles": "CCc1cc2c(cc1N1CCC(N3CCOCC3)CC1)C(C)(C)c1[nH]c3cc(C#N)ccc3c1C2=O", "test.result": 1.09}
{"structure.as.smiles": "C[C@]1(O)C[C@@H](c2nc(-c3ccc4ccc(-c5ccccc5)nc4c3)c3c(N)nccn32)C1", "test.result": 0.974}
{"structure.as.smiles": "COc1cc2nccc(Oc3ccc(NC(=O)Nc4cc(C)on4)c(Cl)c3)c2cc1OC", "test.result": 1.08}
{"structure.as.smiles": "CNC(=O)c1cc(Oc2ccc(NC(=O)Nc3ccc(Cl)c(C(F)(F)F)c3)c(F)c2)ccn1", "test.result": 1.11}
{"structure.as.smiles": "COc1cc2/c(=N/c3ccc(Br)cc3F)nc[nH]c2cc1OCC1CCN(C)CC1", "test.result": 0.964}

###

Tested on: HS729
experiment.summary: relative viability vs DMSO control (72 h) (fraction); higher = more viable cells
condition.notes: 0.00017 µM
Structures can show the parent of a compound that is named as a salt.
Reported relative viability values are given for each entry in this list.
recorded.endpoint: relative viability

{"molecule": "C=CC(=O)N1CCC[C@@H](n2nc(-c3ccc(Oc4ccccc4)cc3)c3c(N)ncnc32)C1", "test.result": 1.04}
{"molecule": "Cc1cnc(Nc2ccc(OCCN3CCCC3)cc2)nc1Nc1cccc(S(=O)(=O)NC(C)(C)C)c1", "test.result": 1.03}
{"molecule": "CN1CCN(c2ccc3nc(-c4c(N)c5c(F)cccc5[nH]c4=O)[nH]c3c2)CC1", "test.result": 1.09}
{"molecule": "COc1cc2/c(=N/c3ccc(Br)cc3F)nc[nH]c2cc1OCC1CCN(C)CC1", "test.result": 0.915}
{"molecule": "C=CC(=O)N1CCC([C@@H]2CCNc3c(C(N)=O)c(-c4ccc(Oc5ccccc5)cc4)nn32)CC1", "test.result": 1.06}
{"molecule": "Cc1ccc(F)c(NC(=O)Nc2ccc(-c3cccc4[nH]nc(N)c34)cc2)c1", "test.result": 1.02}
{"molecule": "COc1cccc2c1C(=O)c1c(O)c3c(c(O)c1C2=O)C[C@@](O)(C(=O)CO)C[C@@H]3O[C@H]1C[C@H](N)[C@H](O)[C@H](C)O1 [Doxorubicin Hydrochloride]", "test.result": 0.93}

###

System: HS729
experiment.summary: standardised AUC of viability dose-response curve (72 h) (fraction (0-1)); higher = less growth inhibition (more resistant)
Tick criterion met if standardised AUC is 0.9 or greater. Tick criterion not met if standardised AUC is less than 0.9.

{"structure.as.smiles": "CC1(C)CNc2cc(NC(=O)c3cccnc3NCc3ccncc3)ccc21", "group": "criterion met"}
{"structure.as.smiles": "CO[C@H]1C[C@@H]2CC[C@@H](C)[C@@](O)(O2)C(=O)C(=O)N2CCCC[C@H]2C(=O)O[C@H]([C@H](C)C[C@@H]2CC[C@@H](OP(C)(C)=O)[C@H](OC)C2)CC(=O)[C@H](C)/C=C(\\C)[C@@H](O)[C@@H](OC)C(=O)[C@H](C)C[C@H](C)/C=C/C=C/C=C/1C", "group": "criterion met"}
{"structure.as.smiles": "Cc1cnc(Nc2ccc(OCCN3CCCC3)cc2)nc1Nc1cccc(S(=O)(=O)NC(C)(C)C)c1", "group": "criterion not met"}
{"structure.as.smiles": "Cc1nc(-c2cn3c(n2)-c2ccc(-c4cnn(C(C)(C)C(N)=O)c4)cc2OCC3)n(C(C)C)n1", "group": "criterion not met"}
{"structure.as.smiles": "CC(=O)Nc1cccc(-n2c(=O)n(C3CC3)c(=O)c3c(Nc4ccc(I)cc4F)n(C)c(=O)c(C)c32)c1", "group": "criterion not met"}
{"structure.as.smiles": "Cc1cc(C)c(/C=C2\\C(=O)Nc3ccccc32)[nH]1", "group": "criterion met"}
{"structure.as.smiles": "CN1CCC(COc2cnc(-c3cccc(Cn4nc(-c5cccc(C#N)c5)ccc4=O)c3)nc2)CC1", "group": "criterion met"}
{"structure.as.smiles": "CCN1CCN(Cc2ccc(Nc3ncc(F)c(-c4cc(F)c5nc(C)n(C(C)C)c5c4)n3)nc2)CC1", "group": "criterion met"}

###

Tested on: RD
experiment.summary: relative viability vs DMSO control (72 h) (fraction); higher = more viable cells
condition.notes: 0.1235 µM

{"compound": "C[C@@H]1CCN(C(=O)CC#N)C[C@@H]1N(C)c1ncnc2[nH]ccc12 [Tofacitinib]", "relative viability": 1.13}
{"compound": "CO[C@H]1C[C@@H]2CC[C@@H](C)[C@@](O)(O2)C(=O)C(=O)N2CCCC[C@H]2C(=O)O[C@H]([C@H](C)C[C@@H]2CC[C@@H](OP(C)(C)=O)[C@H](OC)C2)CC(=O)[C@H](C)/C=C(\\C)[C@@H](O)[C@@H](OC)C(=O)[C@H](C)C[C@H](C)/C=C/C=C/C=C/1C [Ridaforolimus]", "relative viability": 0.764}
{"compound": "Cc1ccc(NC(=O)c2ccc(CN3CCN(C)CC3)cc2)cc1Nc1nc(-c2cccnc2)cs1 [Masitinib]", "relative viability": 0.995}
{"compound": "Cc1nc(-c2cn3c(n2)-c2ccc(-c4cnn(C(C)(C)C(N)=O)c4)cc2OCC3)n(C(C)C)n1 [Taselisib]", "relative viability": 0.687}
{"compound": "COc1c(OCCCN2CCOCC2)ccc2c1N=C(NC(=O)c1cnc(N)nc1)N1CCN=C21 [Copanlisib]", "relative viability": 0.438}
{"compound": "C=CC(=O)N1CCC([C@@H]2CCNc3c(C(N)=O)c(-c4ccc(Oc5ccccc5)cc4)nn32)CC1 [Zanubrutinib]", "relative viability": 0.926}
{"compound": "CCc1cc2c(cc1N1CCC(N3CCOCC3)CC1)C(C)(C)c1[nH]c3cc(C#N)ccc3c1C2=O [Alectinib]", "relative viability": 1.13}
